- System: c-Src
- experiment-notes: phosphorylation enrichment, bacterial display (enrichment ratio); higher = better substrate or ligand; peptides without Tyr show the background;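 further: 11-residue human phosphosite peptides and single-mutation variants displayed on the E. coli surface, counted by deep sequencing, each peptide's frequency after selection divided by its frequency in the unselected input library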;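 further: frequency after pTyr selection over input frequency; kinase dosed for 20-30% of maximal phosphorylation in three min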
Grouping by measured phosphorylation enrichment is done with the following cut points: lowest (below 0.4), middle (0.4 to below 0.5), highest (0.5 or more)

Use these answered entries as a reference point.
input-sequence | class-label
GDGRFYMMEAI [PGM1_Y66_K68M] | highest
CENNRYGMGTS [PDHA1_Y227] | highest

## Task Category lookup for the sequence LLANAYIYDVQ [L1CAM_Y418_V421D]
## Result highest

## Task Lab note: sort MEVEQYIFVKC [CYBB_Y324_G322E] into the matching phosphorylation enrichment band.
## Result highest

## Task Hi, small favor: classify RSAGKDDVYLI [MECP2_Y120_Y120D] by its phosphorylation enrichment when you get a moment.
## Result highest

## Task Kindly identify the class of GFGGGYGGVLT [KRT19_Y65_A60G_YF] .
## Result middle

## Task Class label required: MPLTEYLKQIK [CNGB3_Y200_R203Q]
## Result highest

## Task Sort QNTGDYCDLYG [PTPN11_Y62_Y63C] into one of the categories.
## Result highest

## Task Field: class (phosphorylation enrichment) — entry: RIAFQYGDTDL [MYBPC3_Y340_V342D]
## Result lowest

## Task For the record AKIDGYIISFR , report the class its phosphorylation enrichment corresponds to.
## Result lowest

## Task Which phosphorylation enrichment category applies to TIAIRYSHSRR [ACOXL_Y260] here?
## Result highest

* * *

- assayed-system: Fyn (UniProt P06241)
- Sequence (P06241 whole entry, looked up): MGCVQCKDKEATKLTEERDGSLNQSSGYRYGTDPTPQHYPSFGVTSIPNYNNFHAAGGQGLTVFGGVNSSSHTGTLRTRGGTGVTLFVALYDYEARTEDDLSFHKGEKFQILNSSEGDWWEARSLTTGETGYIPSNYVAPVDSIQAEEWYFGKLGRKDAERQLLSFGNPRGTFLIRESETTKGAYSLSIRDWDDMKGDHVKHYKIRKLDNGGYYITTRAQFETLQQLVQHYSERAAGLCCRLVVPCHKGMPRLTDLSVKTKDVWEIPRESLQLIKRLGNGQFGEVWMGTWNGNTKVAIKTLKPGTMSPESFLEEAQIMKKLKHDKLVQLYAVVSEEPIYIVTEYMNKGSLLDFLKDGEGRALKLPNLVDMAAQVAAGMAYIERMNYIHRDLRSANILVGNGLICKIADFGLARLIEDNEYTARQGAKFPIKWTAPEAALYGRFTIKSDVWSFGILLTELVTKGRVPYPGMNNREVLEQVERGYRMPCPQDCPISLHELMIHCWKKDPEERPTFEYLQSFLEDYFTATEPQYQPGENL
- experiment-notes: phosphorylation enrichment, bacterial display (enrichment ratio); higher = better substrate or ligand; peptides without Tyr show the background
A collection of sequences and their measured phosphorylation enrichment
Please give the numeric answer without any surrounding text.

Sample records with phosphorylation enrichment:
input-sequence | assayed-system | phosphorylation enrichment
CRWKRYQCSHD [GDPD5_Y30_R32C] | Fyn (UniProt P06241) | 0.52
PAGSGYPAFLG [ATP6V1A_Y374_D371G_YF] | Fyn (UniProt P06241) | 0.478
FPPTHYIRRMP [SLC4A11_Y820_V824M_YF] | Fyn (UniProt P06241) | 0.561
SVVVRYEPPEV [TP53_Y220_P219R] | Fyn (UniProt P06241) | 0.371
CEDGNYSPEIS [PTDSS1_Y424_T423N] | Fyn (UniProt P06241) | 0.458
IDPFIYTPFGS [CYP3A4_Y432_YF] | Fyn (UniProt P06241) | 6.96
SCRENYSYSEE [LEMD3_Y258_D260Y] | Fyn (UniProt P06241) | 0.512
SNKLTYGTVVF [ACOX1_Y275_M278V] | Fyn (UniProt P06241) | 8
TFWKKYRTFWK [CCDC70_Y125] | Fyn (UniProt P06241) | 0.46
VRHRRYKHTHE [CTCF_Y343] | Fyn (UniProt P06241) | 0.613

Proceeding to the next sequence to report its phosphorylation enrichment.
## Task Fill in the blank: the reported phosphorylation enrichment of RPPFTYATLIR [FOXP3_Y342] is ____.
## Result 2.14

* * *

- assayed-system: EPHB2 (UniProt P29323)
- Sequence (P29323 whole entry, looked up): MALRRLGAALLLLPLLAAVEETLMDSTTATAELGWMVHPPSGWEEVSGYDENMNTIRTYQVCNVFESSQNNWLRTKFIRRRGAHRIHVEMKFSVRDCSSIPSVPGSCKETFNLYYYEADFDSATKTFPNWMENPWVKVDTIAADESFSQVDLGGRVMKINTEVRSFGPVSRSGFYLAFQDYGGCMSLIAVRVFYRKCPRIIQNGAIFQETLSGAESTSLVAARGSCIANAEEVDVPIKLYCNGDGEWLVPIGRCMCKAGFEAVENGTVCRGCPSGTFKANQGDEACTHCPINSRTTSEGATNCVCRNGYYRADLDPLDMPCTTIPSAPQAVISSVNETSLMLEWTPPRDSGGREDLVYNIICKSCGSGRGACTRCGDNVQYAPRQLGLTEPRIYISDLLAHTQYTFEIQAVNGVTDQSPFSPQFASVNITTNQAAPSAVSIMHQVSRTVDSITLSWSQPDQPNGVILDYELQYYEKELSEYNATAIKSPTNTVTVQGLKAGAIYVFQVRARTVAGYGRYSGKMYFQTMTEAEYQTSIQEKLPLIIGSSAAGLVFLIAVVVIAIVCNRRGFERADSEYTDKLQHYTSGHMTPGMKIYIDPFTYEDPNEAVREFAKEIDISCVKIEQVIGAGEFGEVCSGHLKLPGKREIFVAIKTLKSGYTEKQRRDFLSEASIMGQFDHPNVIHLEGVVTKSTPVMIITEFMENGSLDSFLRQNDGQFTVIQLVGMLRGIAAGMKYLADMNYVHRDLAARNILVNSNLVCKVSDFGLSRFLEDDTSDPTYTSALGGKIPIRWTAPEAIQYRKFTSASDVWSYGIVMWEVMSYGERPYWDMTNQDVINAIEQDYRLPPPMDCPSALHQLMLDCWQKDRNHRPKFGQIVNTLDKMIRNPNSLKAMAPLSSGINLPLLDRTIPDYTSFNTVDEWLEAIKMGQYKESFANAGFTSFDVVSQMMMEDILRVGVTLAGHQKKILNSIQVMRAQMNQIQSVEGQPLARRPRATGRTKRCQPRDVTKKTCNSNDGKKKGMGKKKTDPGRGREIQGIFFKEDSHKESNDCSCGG
- experiment-notes: phosphorylation enrichment, bacterial display (enrichment ratio); higher = better substrate or ligand; peptides without Tyr show the background
value-type: phosphorylation enrichment

The examples below pair each entry with its known result.
input-sequence | phosphorylation enrichment
IKKLIYVFLVI [JAGN1_Y42_H44Y_YF] | 0.547
GQDLFYEDEDL [PACS1_Y303] | 0.628
RDLRTYIMPAH [PNMT_Y256] | 0.815
SCRENYSDSEE [LEMD3_Y258] | 0.619

## Task Return phosphorylation enrichment measured with EPHB2 (UniProt P29323) given this sequence: SAEKAYHEQFS [TUBA1A_Y282_L286F]
## Result 0.393

## Task // lookup phosphorylation enrichment | system=EPHB2 (UniProt P29323) | key= TYGVAYRAKDK [CDK11B_Y453_V452A]
## Result 0.592
